- MEASUREMENT TARGET: c-Src SH2
- ASSAY REMARKS: SH2 binding enrichment of the phosphorylated peptide, bacterial display (enrichment ratio); higher = better substrate or ligand; peptides without Tyr show the background

>  <SEQUENCE CODE>
GGQSVYHVNLH [HINT1_Y109_H112N]

>  <MEASUREMENT TARGET>
c-Src SH2

>  <SH2 binding enrichment>
0.491

$$$$
>  <SEQUENCE CODE>
LARDMYDKEFF [MET_Y1230_YF]

>  <MEASUREMENT TARGET>
c-Src SH2

>  <SH2 binding enrichment>
0.506

$$$$
>  <SEQUENCE CODE>
SGASGYSATST [CERT1_Y143]

>  <MEASUREMENT TARGET>
c-Src SH2

>  <SH2 binding enrichment>
0.486

$$$$
>  <SEQUENCE CODE>
LEQQKYTVTID [IKBKB_Y199_V203I]

>  <MEASUREMENT TARGET>
c-Src SH2

>  <SH2 binding enrichment>
0.486

$$$$
>  <SEQUENCE CODE>
LVTRSYLLGNS [LMNA_Y646]

>  <MEASUREMENT TARGET>
c-Src SH2

>  <SH2 binding enrichment>
0.444

$$$$
>  <SEQUENCE CODE>
VLTSKYPGGGG [HBA1_Y141_R142P]

>  <MEASUREMENT TARGET>
c-Src SH2

>  <SH2 binding enrichment>
0.366

$$$$
>  <SEQUENCE CODE>
FRDALYKFMVD [PHEX_Y250_YF]

>  <MEASUREMENT TARGET>
c-Src SH2

>  <SH2 binding enrichment>
0.77

$$$$
>  <SEQUENCE CODE>
RPIEVYLCPEE [E2F3_Y349_G344R]

>  <MEASUREMENT TARGET>
c-Src SH2

>  <SH2 binding enrichment>
0.559

$$$$
>  <SEQUENCE CODE>
WSISFYPQVIM [CTNS_Y143]

>  <MEASUREMENT TARGET>
c-Src SH2

>  <SH2 binding enrichment>
0.571

$$$$
>  <SEQUENCE CODE>
HCHEGYILHGA [SVEP1_Y2921]

>  <MEASUREMENT TARGET>
c-Src SH2

>  <SH2 binding enrichment>
0.812

$$$$
>  <SEQUENCE CODE>
FADIAYSFRHG [PAH_Y166_N167S_YF]

>  <MEASUREMENT TARGET>
c-Src SH2

>  <SH2 binding enrichment>
0.673

$$$$
>  <SEQUENCE CODE>
IGDENYGEGSS [ACO2_Y665]

>  <MEASUREMENT TARGET>
c-Src SH2

>  <SH2 binding enrichment>
0.449

$$$$
>  <SEQUENCE CODE>
HESEIYCKVCY [CSRP3_Y57]

>  <MEASUREMENT TARGET>
c-Src SH2

>  <SH2 binding enrichment>
1.8

$$$$

====

- Test system: Fer (mouse)
- ASSAY REMARKS: phosphorylation enrichment, bacterial display (enrichment ratio); higher = better substrate or ligand; peptides without Tyr show the background
Let's look at some sequences and their measured phosphorylation enrichment.
MEASUREMENT KIND: phosphorylation enrichment

>  <SEQUENCE CODE>
FRNSLYAPDYS [FAM92A_Y226]

>  <READOUT NUMBER>
0.555

$$$$
>  <SEQUENCE CODE>
AGLEDYDRLRP [RAC3_Y64_Q61L]

>  <READOUT NUMBER>
0.62

$$$$
>  <SEQUENCE CODE>
FGMSTYITRED [FNDC3B_Y180_YF]

>  <READOUT NUMBER>
0.533

$$$$
>  <SEQUENCE CODE>
FPPDGYSRHFE [CTNND1_Y213_YF]

>  <READOUT NUMBER>
0.349

$$$$
>  <SEQUENCE CODE>
KSFDMYSGDVM [FAM3D_Y122_A118S]

>  <READOUT NUMBER>
0.589

$$$$
>  <SEQUENCE CODE>
CERFSYYGMKA [SLC15A2_Y60]

>  <READOUT NUMBER>
0.558

$$$$
>  <SEQUENCE CODE>
EDGCIYPATIA [SMN1_Y109]

>  <READOUT NUMBER>
0.513

$$$$

====

- MEASUREMENT TARGET: MERTK (UniProt Q12866)
- Sequence (Q12866 whole entry, looked up): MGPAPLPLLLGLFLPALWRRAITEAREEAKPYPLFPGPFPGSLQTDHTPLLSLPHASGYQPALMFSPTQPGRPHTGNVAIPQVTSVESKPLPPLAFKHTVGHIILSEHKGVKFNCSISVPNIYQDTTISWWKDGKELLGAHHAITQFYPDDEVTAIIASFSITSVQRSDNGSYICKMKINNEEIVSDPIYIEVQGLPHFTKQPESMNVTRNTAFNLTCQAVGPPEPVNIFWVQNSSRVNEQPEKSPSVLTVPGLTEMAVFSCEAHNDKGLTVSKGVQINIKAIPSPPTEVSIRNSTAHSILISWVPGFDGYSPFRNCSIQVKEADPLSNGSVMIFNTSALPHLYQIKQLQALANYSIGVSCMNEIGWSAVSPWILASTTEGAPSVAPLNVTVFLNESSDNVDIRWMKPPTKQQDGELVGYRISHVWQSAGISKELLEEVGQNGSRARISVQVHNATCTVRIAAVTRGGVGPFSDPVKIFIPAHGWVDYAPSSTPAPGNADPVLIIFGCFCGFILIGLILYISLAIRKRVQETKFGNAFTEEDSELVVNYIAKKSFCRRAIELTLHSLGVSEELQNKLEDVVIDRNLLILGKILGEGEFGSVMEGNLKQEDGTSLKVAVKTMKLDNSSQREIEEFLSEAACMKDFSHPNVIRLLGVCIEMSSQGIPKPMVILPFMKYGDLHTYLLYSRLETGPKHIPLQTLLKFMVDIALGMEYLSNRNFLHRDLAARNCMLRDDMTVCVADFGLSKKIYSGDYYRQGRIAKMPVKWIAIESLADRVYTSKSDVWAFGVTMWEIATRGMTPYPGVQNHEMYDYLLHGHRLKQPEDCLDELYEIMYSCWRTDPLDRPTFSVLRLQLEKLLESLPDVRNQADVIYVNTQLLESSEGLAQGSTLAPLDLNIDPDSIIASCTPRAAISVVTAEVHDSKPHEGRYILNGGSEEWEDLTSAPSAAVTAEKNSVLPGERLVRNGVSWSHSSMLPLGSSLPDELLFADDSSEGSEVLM
- ASSAY REMARKS: phosphorylation enrichment, bacterial display (enrichment ratio); higher = better substrate or ligand; peptides without Tyr show the background
MEASUREMENT KIND: phosphorylation enrichment

>  <SEQUENCE CODE>
GIVEEYQLPFF [BMPR1A_Y453_YF]

>  <RESULT>
0.588

$$$$
>  <SEQUENCE CODE>
ITQRAYRRHLL [SCN1A_Y1926_I1922T]

>  <RESULT>
0.585

$$$$
>  <SEQUENCE CODE>
SASRSYSRSRS [SRRM4_Y549]

>  <RESULT>
0.589

$$$$
>  <SEQUENCE CODE>
RLLVVYPWTKR [HBB_Y36_Q40K]

>  <RESULT>
0.612

$$$$
>  <SEQUENCE CODE>
VFSTDYFRVGG [NTRK2_Y706_YF]

>  <RESULT>
0.587

$$$$

====

- Test system: c-Abl (mouse)
- ASSAY REMARKS: phosphorylation enrichment, bacterial display (enrichment ratio); higher = better substrate or ligand; peptides without Tyr show the background
MEASUREMENT KIND: phosphorylation enrichment

>  <SEQUENCE CODE>
RWGQKHMTAVV [CYBA_Y72_Y72H]

>  <MEASUREMENT TARGET>
c-Abl (mouse)

>  <READOUT NUMBER>
0.81

$$$$
>  <SEQUENCE CODE>
VSFDEYRFRSV [CFTR_Y515_YF]

>  <MEASUREMENT TARGET>
c-Abl (mouse)

>  <READOUT NUMBER>
0.862

$$$$
>  <SEQUENCE CODE>
KWRGQYDVAIR [BTK_Y425_K430R]

>  <MEASUREMENT TARGET>
c-Abl (mouse)

>  <READOUT NUMBER>
0.539

$$$$
>  <SEQUENCE CODE>
VIVRMYDFHVL [RPF2_Y109_G106V_YF]

>  <MEASUREMENT TARGET>
c-Abl (mouse)

>  <READOUT NUMBER>
0.885

$$$$
>  <SEQUENCE CODE>
KAIMTYVSSFF [ACTN4_Y260_YF]

>  <MEASUREMENT TARGET>
c-Abl (mouse)

>  <READOUT NUMBER>
0.527

$$$$
>  <SEQUENCE CODE>
CGADSYEMEED [EGFR_Y316]

>  <MEASUREMENT TARGET>
c-Abl (mouse)

>  <READOUT NUMBER>
0.827

$$$$
>  <SEQUENCE CODE>
GGQSVYHVNLH [HINT1_Y109_H112N]

>  <MEASUREMENT TARGET>
c-Abl (mouse)

>  <READOUT NUMBER>
0.491

$$$$
>  <SEQUENCE CODE>
RQQEDYLLYKQ [RARRES1_Y159]

>  <MEASUREMENT TARGET>
c-Abl (mouse)

>  <READOUT NUMBER>
1.39

$$$$
>  <SEQUENCE CODE>
GRLFAYPDTHC [CAT_Y358_R363C]

>  <MEASUREMENT TARGET>
c-Abl (mouse)

>  <READOUT NUMBER>
0.75

$$$$
>  <SEQUENCE CODE>
IGDENYGEGSS [ACO2_Y665]

>  <MEASUREMENT TARGET>
c-Abl (mouse)

>  <READOUT NUMBER>
0.882

$$$$
>  <SEQUENCE CODE>
YKEDPYLVVNP [MCM6_Y810_E806K]

>  <MEASUREMENT TARGET>
c-Abl (mouse)

>  <READOUT NUMBER>
0.662

$$$$
>  <SEQUENCE CODE>
ADEQIYWQIAA [CSKtide_2014]

>  <MEASUREMENT TARGET>
c-Abl (mouse)

>  <READOUT NUMBER>
5.09

$$$$
>  <SEQUENCE CODE>
YDCKWYIPLTD [BCR_Y756]

>  <MEASUREMENT TARGET>
c-Abl (mouse)

>  <READOUT NUMBER>
0.914

$$$$

====

- MEASUREMENT TARGET: c-Src SH2
- ASSAY REMARKS: SH2 binding enrichment of the phosphorylated peptide, bacterial display (enrichment ratio); higher = better substrate or ligand; peptides without Tyr show the background
Below: a set of entries, each annotated with reported SH2 binding enrichment.
MEASUREMENT KIND: SH2 binding enrichment

>  <SEQUENCE CODE>
KAIMTYVSSFF [ACTN4_Y260_YF]

>  <MEASUREMENT TARGET>
c-Src SH2

>  <READOUT NUMBER>
0.677

$$$$
>  <SEQUENCE CODE>
YRDALYKFIVD [PHEX_Y250_M253I]

>  <MEASUREMENT TARGET>
c-Src SH2

>  <READOUT NUMBER>
0.683

$$$$
>  <SEQUENCE CODE>
MHYSNYVSKGS [PDGFRA_Y849_D846Y]

>  <MEASUREMENT TARGET>
c-Src SH2

>  <READOUT NUMBER>
0.799

$$$$
>  <SEQUENCE CODE>
DSYWSYCNAVA [SLC20A2_Y436_S434W]

>  <MEASUREMENT TARGET>
c-Src SH2

>  <READOUT NUMBER>
0.817

$$$$
>  <SEQUENCE CODE>
LNERHYGGLTG [PGAM2_Y92]

>  <MEASUREMENT TARGET>
c-Src SH2

>  <READOUT NUMBER>
0.415

$$$$
>  <SEQUENCE CODE>
AVARPYHIQKW [ACSBG1_Y677_A673V]

>  <MEASUREMENT TARGET>
c-Src SH2

>  <READOUT NUMBER>
1.27

$$$$
>  <SEQUENCE CODE>
LPENPYHSRPR [NDUFA8_Y142]

>  <MEASUREMENT TARGET>
c-Src SH2

>  <READOUT NUMBER>
0.561

$$$$
>  <SEQUENCE CODE>
SVLVPYEPPEV [TP53_Y220_V217L]

>  <MEASUREMENT TARGET>
c-Src SH2

>  <READOUT NUMBER>
1.14

$$$$
>  <SEQUENCE CODE>
NMSRIYSTAKV [ACE_Y151]

>  <MEASUREMENT TARGET>
c-Src SH2

>  <READOUT NUMBER>
0.545

$$$$
>  <SEQUENCE CODE>
LLVVLCKFRCF [PSEN1_Y154_Y154C_YF]

>  <MEASUREMENT TARGET>
c-Src SH2

>  <READOUT NUMBER>
1.57

$$$$
>  <SEQUENCE CODE>
SDVCMYRKNIF [SYNE2_Y570_YF]

>  <MEASUREMENT TARGET>
c-Src SH2

>  <READOUT NUMBER>
0.554

$$$$
>  <SEQUENCE CODE>
SRPHLYGTPSR [ADGRE2_Y670]

>  <MEASUREMENT TARGET>
c-Src SH2

>  <READOUT NUMBER>
1.09

$$$$
>  <SEQUENCE CODE>
FRNSLYAPDYS [FAM92A_Y226]

>  <MEASUREMENT TARGET>
c-Src SH2

>  <READOUT NUMBER>
0.568

$$$$
>  <SEQUENCE CODE>
GVRFIYTIDGS [DCX_Y105_YF]

>  <MEASUREMENT TARGET>
c-Src SH2

>  <READOUT NUMBER>
0.507

$$$$
>  <SEQUENCE CODE>
IPTPAYQSSPA [PDCD6IP_Y727]

>  <MEASUREMENT TARGET>
c-Src SH2;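 further: peptide library displayed on the E. coli surface as eCPX fusions, selected cells deep-sequenced, score is each peptide's frequency after selection divided by its frequency in the input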

>  <READOUT NUMBER>
0.567

$$$$

Where do these numbers come from? They come from the supplement of paper PMC10065799.
